Listing: EC50 of selected binders
target-under-test: T1, human Claudin 18.2 (CLDN18.2) (human, UniProt P56856-2 1-261)
T1 construct: whole, on cells; recombinantly expressed on CHO, HEK293, NCI-N87, NUGC4 or PANC-1 cells; also called CHO-CLDN18.2
experimental-details: FACS on CHO-CLDN18.2 cells
Please give a number only; it is taken to be in nM.

Sample answers from the record:
Q) Identify measured EC50 corresponding to 413H9F8-H4L4 (antibody, V domains shown, humanized IgG; constant regions not specified) VH: EVQLVESGGGLVQPGGSLRLSCAASGFTFSSFGMHWVRQAPGKGLEWVAYISSGSSPIYYVDKLKGRFTVSRDNAKNSLYLQMTSLRAEDTAVYYCARAGYAVRNALDYWGQGTLVTVSS VL: DIVMTQSPDSLAVSLGERATISCKSSQSLLNVGNQKNYLAWYQQKPGQPPKLLIYGASTRESGVPDRFIGSGSGTDFTLTISSLQAEDVAVYFCQNDLFYPLTFGAGTKVEIK
A) 2.34

Q) Consider the binder 413H9F8-H4L2 (antibody, V domains shown, humanized IgG; constant regions not specified) VH: EVQLVESGGGLVQPGGSLRLSCAASGFTFSSFGMHWVRQAPGKGLEWVAYISSGSSPIYYVDKLKGRFTVSRDNAKNSLYLQMTSLRAEDTAVYYCARAGYAVRNALDYWGQGTLVTVSS VL: DIVMTQSPDSLAVSLGERATINCKSSQSLLNVGNQKNYLAWYQQKPGQPPKLLIYGASTRESGVPDRFSGSGSGTDFTLTISSLQAEDVAVYFCQNDLFYPLTFGGGTKVEIK . State its measured EC50.
A) 2.45

Would you kindly look at the next entry?
Q) Report measured EC50; entry is 413H9F8-H3L3 (antibody, V domains shown, humanized IgG; constant regions not specified) VH: EVQLVESGGGLVQPGGSLRLSCAASGFTFSSFGMHWVRQAPGKGLEWVAYISSGSSPIYYVDKLKGRFTVSRDNAKNSLYLQMNSLRAEDTAVYYCARAGYAVRNALDYWGQGTLVTVSS VL: DIVMTQSPDSLAVSLGERATINCKSSQSLLNVGNQKNYLAWYQQKPGQPPKLLIYGASTRESGVPDRFIGSGSGTDFTLTISSLQAEDVAVYFCQNDLFYPLTFGGGTKVEIK
A) 2.24

Ref: patent US20210380680A1
